tested on: SF-539 CNS; experiment: NCI-60 one-dose screen, 48 h (100 = growth as untreated, 0 = no growth, -100 = all killed); conditions: 10 µM unless noted
The panel holds about 83,000 compounds, 20% with a hit somewhere; the sample as a whole holds those more often.
Attribute Measured: growth (%)
Please state the figure in %; there is no need to write the unit.

## Input Provide growth, tested on SF-539 CNS, for CCOc1ccc(NC(=O)Nc2cc(C(C)C)ccc2C)cc1 .
## Output 90

## Input Recall the reported growth of O=S(=O)(Nc1cccc2cc(OS(=O)(=O)c3ccccc3)ccc12)c1ccccc1 when tested on SF-539 CNS.
## Output 63.4

## Input State growth on SF-539 CNS. Entry: C#C[C@H](O)/C=C/CCCCCCC#C[C@H](O)CC[C@@H](O)C#CCCCCCC/C=C/[C@@H](O)C#C
## Output 75.9

## Input Write down the reported growth (system: SF-539 CNS) of NS(=O)(=O)c1ccc(-n2nc(-c3ccc(Cl)cc3)ccc2=O)cc1
## Output 84.4

## Input Fill in: growth on SF-539 CNS, entry O=C(Nc1ccc(-n2cc(-c3ccncc3)c(-c3ccc(O)c(Cl)c3)n2)cc1)c1cc(Cl)cc(Cl)c1
## Output 12.8

----------
system: SK-MEL-28 melanoma; experiment: NCI-60 one-dose screen, 48 h (100 = growth as untreated, 0 = no growth, -100 = all killed); conditions: 10 µM unless noted
The panel holds about 83,000 compounds, 20% with a hit somewhere; the sample as a whole holds those more often.
Kindly state growth for each of the entries shown.
The answer is to be given in %; state only the numeric part.

## Input Using SK-MEL-28 melanoma as the test system, report measured growth of C=C1c2c(Cl)ccc(O)c2C(O)=C2C(=O)[C@]3(O)C(O)=C(C(N)=O)C(=O)[C@@H](N(C)C)[C@@H]3[C@@H](O)[C@H]12 .
## Output 25.8

## Input # assay system SK-MEL-28 melanoma: give growth of CCOC(=O)c1noc2c1CCc1cn(Cc3cc(OC)cc(OC)c3)cc1-2
## Output 105

## Input GET growth | system: SK-MEL-28 melanoma | item: Cc1ccc(NC(=O)CN2CCOCC2)cc1Cl
## Output 104

## Input Param request: growth | system SK-MEL-28 melanoma | item CCCCOc1c(N)cc(Cl)cc1C(=O)OCCN(CC)CC
## Output 114

## Input Answer briefly: growth recorded on SK-MEL-28 melanoma for O=C(Nc1ccc(F)cc1)Nc1ccc(Cl)c([N+](=O)[O-])c1
## Output 22.6

## Input # return growth of CCN(CC)CCNCC(O)Cc1ccc(OC)cc1 (configuration not stated) (system: SK-MEL-28 melanoma)
## Output 116

## Input Enter recorded growth with SK-MEL-28 melanoma for CCCOC(=O)c1ccc([N+](=O)[O-])o1 here.
## Output 106

## Input Tell me growth of C/C(=N/O)c1ccc(NC(=O)Cn2nc(-c3ccc(Cl)cc3)nc2N)cc1 when tested on SK-MEL-28 melanoma.
## Output 114

## Input Under SK-MEL-28 melanoma, report growth for C=C1C(=O)O[C@H]2[C@H]1CC/C(COC(=O)c1ccc(Br)cc1)=C\CC[C@@]1(C)O[C@@H]21
## Output -27

## Input With SK-MEL-28 melanoma as the test system, provide measured growth for this compound: COc1ccc(-c2[nH]c3ccccc3c2/C=C(\C#N)S(=O)(=O)c2ccccc2)cc1
## Output 54.2

## Input Answer briefly: growth recorded on SK-MEL-28 melanoma for C=C1C(=O)O[C@H]2[C@H]1CC/C(CNC(=O)/C1=C/CC[C@@]3(C)O[C@H]3[C@H]3OC(=O)C(=C)[C@@H]3CC1)=C\CC[C@@]1(C)O[C@@H]21
## Output 96.2

## Input // fetch growth; item: O=c1cc(Cl)[nH]c(=O)[nH]1 ; system: SK-MEL-28 melanoma
## Output 105

## Input Print SK-MEL-28 melanoma growth for COc1ccccc1P(c1ccccc1OC)c1ccccc1OC .
## Output 117

## Input Print SK-MEL-28 melanoma growth for N#Cc1c2c(c(N)[nH]c1=O)C(=O)NC2(O)c1ccccc1 (configuration not stated) .
## Output 114

## Input Provide the reported growth (system: SK-MEL-28 melanoma) for COc1cc(CN(c2ccc(Cl)cc2)C2OC(=O)c3ccccc32)cc(OC)c1OC (configuration not stated)
## Output 67.3

## Input Determine reported growth for Cc1ccc(=O)n(-c2ccc(Br)cc2F)c1 ; test system: SK-MEL-28 melanoma.
## Output 108

## Input Param request: growth | system SK-MEL-28 melanoma | item CCN(CC)C(=O)C1CCN(C(=O)c2ccccc2)CC1
## Output 107

## Input Specify the recorded growth for COC(=O)/C=C/C(=O)c1cc(C)cc(C)c1O , system: SK-MEL-28 melanoma.
## Output 102

## Input Provide measured growth on SK-MEL-28 melanoma for COc1cc(/C=C/C(=O)c2ccc(Oc3ncnc4ccccc34)cc2)cc(OC)c1OC please.
## Output 89.4

## Input Specify growth for CN(C)C(=O)Nc1nc2cc(Cl)c(Cl)cc2[nH]1 , system SK-MEL-28 melanoma.
## Output 73.4

## Input State the measured growth (SK-MEL-28 melanoma) of C=CCOc1ccc(/C(Cl)=N/N=C(\Cl)c2cc(OC)c(OC)c(OC)c2)cc1
## Output 88.1

## Input Enter growth (test system SK-MEL-28 melanoma) for COC(OC)C1(c2ccccc2)NC(=O)NC1=O (configuration not stated)
## Output 106

----------
tested on: TK-10 renal; experiment: NCI-60 one-dose screen, 48 h (100 = growth as untreated, 0 = no growth, -100 = all killed); settings: 10 µM unless noted
The panel holds about 83,000 compounds, 20% with a hit somewhere; the sample as a whole holds those more often.
Attribute Measured: growth (%)
Respond with the bare value in %.

## Input Param request: growth | system TK-10 renal | item Cc1nssc1=S
## Output 96.4

## Input With TK-10 renal as the test system, provide measured growth for this molecule: CC(NCCC(c1ccccc1)c1ccccc1)c1ccccc1 (stereo not given)
## Output 57.5

## Input Give growth for this entry on TK-10 renal: C=C1C(=O)O[C@H]2[C@H]1CC/C(COC(=O)CCCC(=O)OC/C1=C/CC[C@@]3(C)O[C@H]3[C@H]3OC(=O)C(=C)[C@@H]3CC1)=C\CC[C@@]1(C)O[C@@H]21
## Output 7.23

## Input Look up and report growth, with TK-10 renal as system, for CC(=O)n1cc(/C=C2\N=C(c3ccc(Cl)cc3)N(c3ccc(S(=O)(=O)Nc4nccs4)cc3)C2=O)c2ccccc21
## Output 117

## Input Look up and report measured growth (TK-10 renal) for the following molecule: O=C(CSc1nnc(-c2ccccc2)o1)Nc1ccc(C(=O)/C=C/c2ccccc2)cc1
## Output 91

## Input Param request: growth | system TK-10 renal | item CCOc1ccc(-n2c(-c3cc(OC)c(OC)c(OC)c3)nnc2-c2ccc(OC)cc2N)cc1
## Output 70

## Input Identify measured growth obtained with TK-10 renal for OCc1cnccc1NC12CC3CC(CC(C3)C1)C2 .
## Output 99.1

## Input Please report the measured growth for COc1ccc(/C=C2\CS(=O)(=O)C/C(=C\c3ccc(OC)cc3)C2=O)cc1 tested on TK-10 renal.
## Output 2.72

## Input State, for TK-10 renal, measured growth of the molecule listed here: COC(=O)c1oc2c(C(C)=O)c(OCCN3CCCCC3)ccc2c1C
## Output 92.1

## Input For TK-10 renal, give growth of the listed molecule: C[C@H]1C=C(C[C@@H](O)CCCCCCCCCC[C@@H](O)[C@H]2CCC(=O)O2)C(=O)O1
## Output 100

----------
test system: RXF 393 renal; assay: NCI-60 one-dose screen, 48 h; details: 10 µM unless noted
Compounds without any hit were thinned out: in the full panel of roughly 83,000, 20% have a hit. The source made the active and inactive calls. How the source made its calls: active means growth percent below 10; inactive means the rest.
One label from this list, please: TRUE = active, FALSE = inactive

## Input Look up the recorded call for CC(C)C1(C(C)C)NC(=O)NC1=O in this test.
## Output FALSE

## Input For Nc1nccc2c1ccn2-c1cccc(NC(=O)c2ccc(N3CCOCC3)c(C(F)(F)F)c2)c1 , which call appears in the assay record?
## Output TRUE

## Input For this compound, state the assay outcome: NS(=O)(=O)c1ccc(-n2nc(-c3ccc(Cl)cc3)ccc2=O)cc1
## Output FALSE

## Input Could you please tell me the result logged for O=c1nc(N2CCOCC2)oc2c(-c3cccc4ccccc34)cccc12 in this assay?
## Output FALSE

## Input Answer briefly: the call reported for COc1ccc(/C=C/C(=O)c2ccc(Oc3ncnc4ccccc34)cc2)cc1OC in this assay.
## Output FALSE

## Input Test call for this compound, please: COc1cc(/C=C\c2cc(/C=C\c3ccc(O)c(OC)c3)n(C(=O)CNc3ccccc3OC)n2)ccc1O
## Output FALSE

## Input Assay result, entry CCn1c(SC)nnc1-c1cc2c([nH]c3ccccc32)c(-c2cccc(O)c2)n1 — outcome?
## Output TRUE

## Input So what was the verdict on O=C(Nc1ccc(F)cc1)Nc1ccc(Cl)c([N+](=O)[O-])c1 in this test?
## Output FALSE

## Input Per the records of this test, what outcome belongs to Cc1cc(Nc2ccc(Cl)c(Cl)c2)nc(N)n1 ?
## Output FALSE

## Input Fill in: this test's call for CC1(C)Cc2c(Br)c(Br)c(Br)c(OCC(O)CN3CCN(c4ccccn4)CC3)c2O1 (stereo unspecified) is ___
## Output FALSE

## Input Please share the test call associated with COc1ccc(C(=O)Cn2cnc3c(Nc4cc(C(=O)Nc5ccc(N6CCN(CCO)CC6)cc5)ccc4C)ncnc32)cc1 .
## Output FALSE

## Input Can you look up the reported call for CN(CCNCc1ccccn1)CCNCc1ccccn1 for me?
## Output TRUE

## Input Check the results log: what was the call for COc1ccc(-c2nn(-c3cccc(Cl)c3)cc2-c2cc(-c3ccc(Br)cc3)[nH]c(=O)c2C#N)cc1 ?
## Output FALSE

## Input Test call, this compound: C=C1C(=O)O[C@H]2[C@H]1CC/C(COC(=O)c1ccccc1)=C\CC[C@@]1(C)O[C@@H]21
## Output TRUE

## Input Tell me the assay call for COc1ccc2c(c1)OC(N)=C(C#N)C2c1ccc(F)c(F)c1 (stereo unspecified) please.
## Output TRUE

## Input Per the records of this test, what outcome belongs to CC(C)NCC(O)COc1ccc(CC(N)=O)cc1 (stereo unspecified) ?
## Output FALSE

## Input Write down the call the test reported for this compound. Item: O=C(Nc1ccc(-n2ccc3c(NC(=O)c4ccccc4)ncnc32)cc1)Nc1ccc(Cl)c(Cl)c1
## Output TRUE

## Input // param item: ClC1c2ccccc2CCc2ccccc21 ; yields the recorded call
## Output FALSE

## Input Query: recorded result category for Cc1cccc[n+]1CCC[n+]1ccccc1C in this test
## Output FALSE

## Input What did this assay record as the result for COc1cc(C(=O)NNC(=O)c2ccccc2O)cc(OC)c1OC ?
## Output FALSE

## Input For this compound, state the assay outcome: O=S1(=O)N(CCNc2nccc(-c3c(-c4cccc(O)c4)nc4sccn34)n2)CCN1Cc1ccccc1
## Output FALSE
